conditions: 313.15 K; 100 kPa
PARAMETER: viscosity (mPa·s)
Your answer is read as mPa·s, so omit the unit and give the number.

Some entries whose results are on file:
INSERT INTO assay_data (sample_smiles, parameter, reported_measurement) VALUES
  ('C=CC(=O)OC(C)(C)C', 'viscosity', 0.6485),
  ('COC(=O)c1ccccc1', 'viscosity', 1.373);

Q: Any idea what its viscosity is? The compound is CCCCCC[N+]1(C)CCCC1.O=S(=O)([N-]S(=O)(=O)C(F)(F)F)C(F)(F)F
Result: 51.01

Q: And what about the compound CCCCCC(C)C ?
Result: 0.393

Q: And what about the compound C[N+](C)(C)C.[OH-] ?
Result: 2.56

Q: And what about the compound CC[N+]1(C)CCCC1.COP(=O)([O-])OC ?
Result: 72.82

Q: And what about the compound CCCCCCCCCCCC[P+](CCCC)(CCCC)CCCC.N#Cc1ccc[n-]1 ?
Result: 166

Q: And what about the compound CCCC[n+]1ccn(C)c1.N#C[C-](C#N)C#N ?
Result: 15.99

----------
conditions: 308.15 K; 100 kPa
PARAMETER: viscosity (mPa·s)
Your answer is read as mPa·s, so omit the unit and give the number.

Some entries whose results are on file:
INSERT INTO results (sample_smiles, parameter, reported_measurement) VALUES
  ('CCCCCC[N+]1(C)CCCC1.O=S(=O)([N-]S(=O)(=O)C(F)(F)F)C(F)(F)F', 'viscosity', 63.07),
  ('C[N+](C)(C)C.[OH-]', 'viscosity', 2.62),
  ('CCCCOCCO', 'viscosity', 2.274),
  ('COC(=O)c1ccccc1', 'viscosity', 1.517),
  ('CC[N+]1(C)CCCC1.COP(=O)([O-])OC', 'viscosity', 93.55);

Q: Any idea what its viscosity is? The compound is C=CC(=O)OC(C)(C)C
Result: 0.701

Q: And what about the compound CCCC[n+]1ccn(C)c1.N#C[C-](C#N)C#N ?
Result: 18.98

----------
details: 293.15 K; 100 kPa
Overview of recorded viscosity for various compounds
Your answer is read as mPa·s, so omit the unit and give the number.

Some entries whose results are on file:
INSERT INTO assay_data (sample_smiles, parameter, reported_measurement) VALUES
  ('CCCCCC(C)C', 'viscosity', 0.5),
  ('C=CC(=O)OC(C)(C)C', 'viscosity', 0.9072),
  ('CC[N+]1(C)CCCC1.COP(=O)([O-])OC', 'viscosity', 227.7);

Q: Any idea what its viscosity is? The compound is CCCC[n+]1ccn(C)c1.N#C[C-](C#N)C#N
Result: 34.9

Q: And what about the compound CCCCCC[N+]1(C)CCCC1.O=S(=O)([N-]S(=O)(=O)C(F)(F)F)C(F)(F)F ?
Result: 136.2

Q: And what about the compound CCCCCCCCCCCC[P+](CCCC)(CCCC)CCCC.N#Cc1ccc[n-]1 ?
Result: 567

----------
assay: xn = mol fraction of the nth substance listed; details: 308.15 K; 101.33 kPa; x1 = 0.4005
± gives the uncertainty stated by the source.
PARAMETER: viscosity

Some entries whose results are on file:
INSERT INTO results (molecule, reported_measurement) VALUES
  ('CCOC(=O)CCl + CCCCCCC', '0.469 ± 0.01 mPa·s'),
  ('CNC=O + O', '1.603 ± 0.013 mPa·s'),
  ('CCOC(=O)CCl + CCCCCCCCCCCC', '0.96 ± 0.018 mPa·s');

Q: Any idea what its viscosity is? The molecule is CCOC(=O)CCl + CCCCCCCCCC
Result: 0.725 ± 0.013 mPa·s
